System: SK-OV-3 ovarian
Assay: NCI-60 one-dose screen, 48 h (100 = growth as untreated, 0 = no growth, -100 = all killed)
Conditions: 10 µM unless noted
Method: Growth inhibition of the SK-OV-3 human tumor cell line is measured as a screen for anti-cancer activity. Cells are grown in 96 well plates and exposed to the test compound for 48 hours. Compounds are tested at a single concentration, which is 10^-5 M for most compounds. The reported endpoint is percent growth (GI% or GIPRCNT), where numbers from 0 - 100% represent growth inhibition, and numbers from -100% - 0 represent cell death. For example, a value of 40 represents 60% growth inhibition. […]
About 83,000 compounds went through this panel and 20% of them were active in at least one assay; those are over-represented in the sample as a whole.
outcome_measure: growth (%)
Give the value in % but do not write % after it.

The examples below pair each entry with its known result.
INSERT INTO assay_data (molecule, unit_of_measurement, measured_number) VALUES
  ('OC(CBr)CCBr (stereo unspecified)', '%', 101),
  ('Cc1ccc(C)c(CCO)c1', '%', 100),
  ('CC(=O)OC/C(C)=C\CC(C)COC(C)=O (stereo unspecified)', '%', 101),
  ('NCCCN1CCCC1=O', '%', 116);

## Input Need growth, item `COc1cc(C(=O)N2CCN(c3ccccc3)CC2)c2ccccc2n1`
## Output 5.77

## Input Item `CCCCNC(=O)c1ccc(OCC)cc1` has what recorded growth?
## Output 98.7

## Input Fill in the blank: the reported growth of `Oc1cccc(CNC2CCCCC2)c1` is ____.
## Output 109

## Input Form field: reported growth of `CSCC[C@@H]1C(=O)N(C)[C@H](C(C)(C)C)N1C(=O)c1ccccc1`
## Output 113

## Input Would you mind telling me what growth value was observed for C/C=C/C1OCC(CC)C(CCC)O1 (stereo unspecified) ?
## Output 108

## Input What does the data say about its growth? Entry: `CC(=O)c1cc(O)ccc1O`
## Output 107

## Input Fill blank: measured growth of the molecule CC(=O)OCC1CCC(COC(C)=O)CC1 (stereo unspecified) is ____.
## Output 87.9

----------
System: M14 melanoma
Assay: NCI-60 one-dose screen, 48 h (100 = growth as untreated, 0 = no growth, -100 = all killed)
Details: 10 µM unless noted
The panel holds about 83,000 compounds, 20% with a hit somewhere; the sample as a whole holds those more often.
outcome_measure: growth (%)
Respond with the bare value in %.

## Input Item under review: `O=C(OC1CCCC1)c1ccccc1Cl` . Reported growth?
## Output 101

## Input Could you tell me which growth is on file for `C/C(Cc1ccccc1)=N\O` ?
## Output 105

## Input Could you share which growth value was measured for `Cc1onc(-c2ccccc2Cl)c1C(=O)Cl` ?
## Output 108

## Input Any idea what its growth is? The compound is `COc1cc(OC)c2cc(C(=O)c3ccc(C#N)cc3)c(=O)oc2c1`
## Output 105

## Input Query: growth; subject: `CCCCOC(=O)c1ccccc1O`
## Output 117

## Input Using the record for `COc1ccc2c(Cl)cc(NC(=O)Nc3c(C)cccc3C)nc2c1` , report its growth.
## Output 85.6

## Input Name the reported growth value associated with the compound `CC(=O)NNC(=S)/N=C\C(C(=O)c1ccccc1)=C(/O)c1ccccc1`
## Output 103

## Input Entry `CN(C(=S)S(=O)(=O)C12CC3CC(CC(C3)C1)C2)c1ccccc1` : reported growth = ?
## Output 107

## Input # growth lookup, item O=C(O)C1CSC(c2ccccc2)N1 (stereo unspecified)
## Output 95.6

## Input Quick one: growth of `CCCCCC(=O)OCCC1CCCCC1` ?
## Output 94

## Input GET /values?readout=growth&item= `C[n+]1c(/C=C\C=C\N2CCCCC2)sc2ccccc21`
## Output 0.396

## Input // query growth value for entry `COc1ccc(C(=O)/C(=N/Nc2ccccc2)c2ccc(OC)cc2)cc1`
## Output 102
